Tested on: K562 SF3B1 K700E vs K562 SF3B1 WT
Assay: surviving fraction ratio K562 SF3B1 K700E / K562 SF3B1 WT (each relative to DMSO); higher = less selective killing of SF3B1 K700E cells
Conditions: 10nM; 5 days
Please use satisfied whenever surviving fraction ratio K562 SF3B1 K700E / K562 SF3B1 WT is not below 0.8, and not satisfied whenever it is.

CCN(CC)CCNC(=O)c1c(C)[nH]c(/C=C2\C(=O)Nc3ccc(F)cc32)c1C [sunitinib]    satisfied
COc1cc2c(Oc3ccc(NC(=O)C4(C(=O)Nc5ccc(F)cc5)CC4)cc3F)ccnc2cc1OCCCN1CCOCC1 [Foretinib]    not satisfied
C[C@]12CC[C@H](O)CC1=CC[C@@H]1[C@@H]2CC[C@]2(C)C(c3cccnc3)=CC[C@@H]12    satisfied
CNCc1ccc(-c2[nH]c3cc(F)cc4c3c2CCNC4=O)cc1    satisfied
C=CC(=O)Nc1cc2c(Nc3ccc(F)c(Cl)c3)ncnc2cc1OCCCN1CCOCC1 [canertinib]    satisfied

Next up:
Ask | Does O=C(c1cc(Cc2n[nH]c(=O)c3ccccc23)ccc1F)N1CCN(C(=O)C2CC2)CC1 [olaparib] have a reported surviving fraction ratio K562 SF3B1 K700E / K562 SF3B1 WT of at least 0.8?
Reply | satisfied

###

Tested on: K562 SF3B1 K700E vs K562 SF3B1 WT
Assay: surviving fraction ratio K562 SF3B1 K700E / K562 SF3B1 WT (each relative to DMSO); higher = less selective killing of SF3B1 K700E cells
Details: 500nM; 5 days
Measured surviving fraction ratio K562 SF3B1 K700E / K562 SF3B1 WT by item
Reply with just the number.

Please review the following examples before continuing.
COc1cc2nccc(Oc3ccc(NC(=O)C4(C(=O)Nc5ccc(F)cc5)CC4)cc3)c2cc1OC [Cabozantinib]    0.503
CN1CCN(c2nc(C3=C(c4c[nH]c5ccccc45)C(=O)NC3=O)c3ccccc3n2)CC1    0.955

Ask | Param item = C=CC(=O)Nc1cc2c(Nc3ccc(F)c(Cl)c3)ncnc2cc1OCCCN1CCOCC1 ; retrieve measured surviving fraction ratio K562 SF3B1 K700E / K562 SF3B1 WT.
Reply | 0.72

Ask | Param item = CCCS(=O)(=O)Nc1ccc(F)c(C(=O)c2c[nH]c3ncc(Cl)cc23)c1F ; retrieve measured surviving fraction ratio K562 SF3B1 K700E / K562 SF3B1 WT.
Reply | 1.1

Ask | Param item = C[C@]12CC[C@H](O)CC1=CC[C@@H]1[C@@H]2CC[C@]2(C)C(c3cccnc3)=CC[C@@H]12 ; retrieve measured surviving fraction ratio K562 SF3B1 K700E / K562 SF3B1 WT.
Reply | 0.995

Ask | Param item = CS(=O)(=O)CCNCc1ccc(-c2ccc3ncnc(Nc4ccc(OCc5cccc(F)c5)c(Cl)c4)c3c2)o1 ; retrieve measured surviving fraction ratio K562 SF3B1 K700E / K562 SF3B1 WT.
Reply | 0.898

Ask | Param item = Cc1nc(Nc2ncc(C(=O)Nc3c(C)cccc3Cl)s2)cc(N2CCN(CCO)CC2)n1 ; retrieve measured surviving fraction ratio K562 SF3B1 K700E / K562 SF3B1 WT.
Reply | 1.72

Ask | Param item = CCN(CC)CCCCNc1ncc2cc(-c3cc(OC)cc(OC)c3)c(NC(=O)NC(C)(C)C)nc2n1 ; retrieve measured surviving fraction ratio K562 SF3B1 K700E / K562 SF3B1 WT.
Reply | 0.957

Ask | Param item = CCC1=C[C@@H]2CN(C1)Cc1c([nH]c3ccccc13)[C@@](C(=O)OC)(c1cc3c(cc1OC)N(C)[C@H]1[C@@](O)(C(=O)OC)[C@H](OC(C)=O)[C@]4(CC)C=CCN5CC[C@]31[C@@H]54)C2 ; retrieve measured surviving fraction ratio K562 SF3B1 K700E / K562 SF3B1 WT.
Reply | 1.97

Ask | Param item = COc1cc2c(Oc3ccc(NC(=O)C4(C(=O)Nc5ccc(F)cc5)CC4)cc3F)ccnc2cc1OCCCN1CCOCC1 ; retrieve measured surviving fraction ratio K562 SF3B1 K700E / K562 SF3B1 WT.
Reply | 1.02

Ask | Param item = COCC[n+]1c2c(n(Cc3cnccn3)c1C)C(=O)c1ccccc1C2=O ; retrieve measured surviving fraction ratio K562 SF3B1 K700E / K562 SF3B1 WT.
Reply | 0.84
